- System: corn (Zea mays)
- assayDetails: Test C pre-/postemergence greenhouse test, plant response rating 0-100
- Type: in vivo
- conditionLabel: Postemergence, 500 g ai/ha; scale 0 to 100
# Lookup of reported Plant response rating, Corn keyed by entry
// response body must contain only the number

- smi: "CCOC(OCC)(c1cccs1)c1c[nH]nc1-c1cc(Cl)cc(Cl)c1"
  measured: 0
- smi: "O=C(c1ccccc1)c1cn(S(=O)(=O)C(F)(F)F)nc1-c1cc(Cl)cc(Cl)c1"
  measured: 0

Sure, the documented Plant response rating, Corn for O=Cn1cc(C(=O)c2ccccc2)c(-c2cc(Cl)cc(Cl)c2)n1 is 0

Sure, the documented Plant response rating, Corn for Cn1cc(C(=O)c2ccccc2)c(-c2cc(Br)cc(Br)c2)n1 is 5
